Hey, just so you know, these numbers are from patent US20080275058A1.

molecular target: 5-HT1a (Homo sapiens); construct: purchased Euroscreen/BioSignal Packard Inc; experiment: Radioligand binding, 5-HT1a ([3H]8-OH-DPAT); details: Table 4; [3H]8-OH-DPAT 0.5 nM; read-out: Binding affinity, IC50 (nM) 5-HT1a
Sequence (P08908 whole entry): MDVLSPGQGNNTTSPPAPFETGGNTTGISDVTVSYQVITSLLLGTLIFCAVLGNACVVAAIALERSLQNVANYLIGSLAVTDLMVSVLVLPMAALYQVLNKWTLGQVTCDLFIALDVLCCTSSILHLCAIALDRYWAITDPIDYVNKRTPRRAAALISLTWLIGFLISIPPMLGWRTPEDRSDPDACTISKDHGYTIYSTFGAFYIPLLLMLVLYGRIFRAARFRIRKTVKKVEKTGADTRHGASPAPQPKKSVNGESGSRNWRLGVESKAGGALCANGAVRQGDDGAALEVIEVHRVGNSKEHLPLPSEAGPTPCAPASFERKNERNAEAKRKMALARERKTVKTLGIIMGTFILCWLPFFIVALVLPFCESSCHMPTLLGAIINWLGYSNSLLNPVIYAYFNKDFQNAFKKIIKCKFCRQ
Kindly note that classification relies on IC50 with these boundaries: band A: < 6000 nM; band B: ≥ 6000 nM and < 8000 nM; band C: ≥ 8000 nM

Please review the following examples before continuing.
{"compound": "COc1ccc(C2(C)C(=O)c3c(N4CCNCC4)cc(Cl)cc3N(Cc3ccc4ccccc4n3)C2=O)cc1 (centres unmarked) [Example 44]", "target.entity": "5-HT1a (Homo sapiens)", "class": "band B"}
{"compound": "COc1ccc(C2(C)C(=O)c3c(N4CCNCC4)cc(Cl)cc3N(CC3CCCCC3)C2=O)cc1 (centres unmarked) [Example 48]", "target.entity": "5-HT1a (Homo sapiens)", "class": "band B"}
{"compound": "COc1ccc(C2(C)C(=O)c3c(N4CCNCC4)cc(Cl)cc3N(Cc3ccccc3)C2=O)cc1 (racemic) [Example 13]", "target.entity": "5-HT1a (Homo sapiens)", "class": "band A"}
{"compound": "CC1(c2ccc(O)cc2)C(=O)c2c(N3CCNCC3)cc(Cl)cc2N(Cc2ccccc2)C1=O (racemic) [Example 14]", "target.entity": "5-HT1a (Homo sapiens)", "class": "band C"}
{"compound": "CC1(c2ccc(O)cc2)C(=O)c2c(N3CCNCC3)cc(Cl)cc2N(Cc2cccc([N+](=O)[O-])c2)C1=O (centres unmarked) [Example 24]", "target.entity": "5-HT1a (Homo sapiens)", "class": "band C"}
{"compound": "CC1(c2ccc(O)cc2)C(=O)c2c(N3CCNCC3)cc(Cl)cc2N(Cc2ccccc2O)C1=O (centres unmarked) [Example 30]", "target.entity": "5-HT1a (Homo sapiens)", "class": "band B"}

Class label required: COc1ccc(CN2C(=O)C(C)(c3ccc(OC)cc3)C(=O)c3c(N4CCNCC4)cc(Cl)cc32)cc1 (centres unmarked) [Example 31]
band B

Class label required: CN1CCN(c2cc(Cl)cc3c2C(=O)C(C)(c2ccc([N+](=O)[O-])cc2)C(=O)N3Cc2ccccc2)CC1 (centres unmarked) [Example 3]
band A

Class label required: CC1(c2ccc(Cl)cc2)C(=O)c2c(N3CCNCC3)cc(Cl)cc2N(Cc2ccccc2)C1=O (centres unmarked) [Example 19]
band B

Class label required: CN1CCN(c2cc(Cl)cc3c2C(=O)C(C)(c2ccc(O)cc2)C(=O)N3Cc2ccccc2)CC1 (centres unmarked) [Example 2]
band C
